Parameter pIC50: see the listing below.
System: T47D (PI3Kα-H1047R) cell line
METHOD NOTES: HTRF phospho-AKT(S473) cell assay in T47D cells
Type: cell-based, human
CONDITION PARAMETERS: Homo sapiens; HTRF phospho-AKT(S473), T47D (PI3Kα-H1047R) cells, 2 hours compound incubation
pIC50: −log10 of the molar value.

{"columns": ["COMPOUND", "pIC50"],
 "data": [
  ["Cc1cc([C@@H](C)Nc2ccc(Cl)nc2C(=O)NS(C)(=O)=O)c2nc(N3C[C@H]4CC4(c4cnc(C)cn4)C3)n(C)c(=O)c2c1 (relative stereo) [Compound 749]", "6.30 to 6.60"],
  ["Cc1cc([C@@H](C)Nc2ccc(Cl)nc2C(=O)NS(C)(=O)=O)c2nc(-c3ccc4nn(C)cc4c3C)n(C)c(=O)c2c1 [Compound 798]", "> 6.60"],
  ["Cc1cc([C@@H](C)Nc2ccc(Cl)nc2C(=O)NS(C)(=O)=O)c2nc(-c3ccc4cn[nH]c4c3)n(C)c(=O)c2c1 [Compound 834]", "6.00 to 6.30"]
]}
